Each recorded value in this set is attributed to patent US20260224548A1.

biological target: HsEH (Homo sapiens, UniProt P34913); assay: biochemical; assay type: biochemical
Sequence (P34913 whole entry): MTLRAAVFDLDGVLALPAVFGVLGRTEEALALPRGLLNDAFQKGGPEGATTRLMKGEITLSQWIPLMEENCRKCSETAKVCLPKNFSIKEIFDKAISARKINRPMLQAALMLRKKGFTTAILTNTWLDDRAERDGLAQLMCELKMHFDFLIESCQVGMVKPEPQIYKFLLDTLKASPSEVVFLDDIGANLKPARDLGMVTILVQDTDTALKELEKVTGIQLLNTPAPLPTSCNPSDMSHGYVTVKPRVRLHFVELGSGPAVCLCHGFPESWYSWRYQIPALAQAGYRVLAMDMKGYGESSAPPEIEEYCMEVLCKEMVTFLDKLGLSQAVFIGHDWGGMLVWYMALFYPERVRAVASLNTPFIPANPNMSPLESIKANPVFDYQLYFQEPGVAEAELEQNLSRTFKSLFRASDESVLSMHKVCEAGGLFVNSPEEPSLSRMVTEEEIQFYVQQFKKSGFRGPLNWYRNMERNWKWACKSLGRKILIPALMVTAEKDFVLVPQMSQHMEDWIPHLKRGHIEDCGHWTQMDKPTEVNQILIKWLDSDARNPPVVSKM
pIC50: −log10 of the molar value.
measure.name: pIC50

{"compound": "CC12CC3CC(C)(C1)CC(NC(=O)Nc1ccc(CN4CCCN(C(=O)CC5CCN(CCO)CC5)CC4)cc1F)(C3)C2", "target.of.assay": "HsEH (Homo sapiens, UniProt P34913)", "measure.name": "pIC50", "recorded.number": 8.33}
{"compound": "CCC(=O)N1CCC(CC(=O)N2CCCN(C(=O)c3ccc(NC(=O)NC45CC6CC(C)(CC(C)(C6)C4)C5)c(F)c3)CC2)CC1", "target.of.assay": "HsEH (Homo sapiens, UniProt P34913)", "measure.name": "pIC50", "recorded.number": 9.05}
{"compound": "CC12CC3CC(C)(C1)CC(NC(=O)Nc1ccc(CN4CCC(C(=O)NC(CO)CO)CC4)cc1F)(C3)C2", "target.of.assay": "HsEH (Homo sapiens, UniProt P34913)", "measure.name": "pIC50", "recorded.number": 7.50}
{"compound": "CN(C)C(=O)[C@H]1CCCN(Cc2ccc(NC(=O)NC34CC5CC(C)(CC(C)(C5)C3)C4)c(F)c2)C1", "target.of.assay": "HsEH (Homo sapiens, UniProt P34913)", "measure.name": "pIC50", "recorded.number": 9.15}
{"compound": "CC(O)CNC(=O)C1CCN(Cc2ccc(NC(=O)NC34CC5CC(C)(CC(C)(C5)C3)C4)c(F)c2)CC1 (centres unmarked)", "target.of.assay": "HsEH (Homo sapiens, UniProt P34913)", "measure.name": "pIC50", "recorded.number": 8.22}
{"compound": "CC12CC3CC(C)(C1)CC(NC(=O)Nc1ccc(C(=O)N4CCC(C(=O)N5CCN(CCO)CC5)CC4)cc1F)(C3)C2", "target.of.assay": "HsEH (Homo sapiens, UniProt P34913)", "measure.name": "pIC50", "recorded.number": 7.90}
{"compound": "CC(=O)N1CCCN(C(=O)[C@H]2CCCN(C(=O)c3ccc(NC(=O)NC45CC6CC(C)(CC(C)(C6)C4)C5)c(F)c3)C2)CC1", "target.of.assay": "HsEH (Homo sapiens, UniProt P34913)", "measure.name": "pIC50", "recorded.number": 9.22}
{"compound": "CC12CC3CC(C)(C1)CC(NC(=O)Nc1ccc(C(=O)N[C@H]4CC[C@H](C(=O)NCCO)CC4)cc1F)(C3)C2", "target.of.assay": "HsEH (Homo sapiens, UniProt P34913)", "measure.name": "pIC50", "recorded.number": 9.10}
